Target: T1, SNTG2, Q9NY99
T1 sequence (Q9NY99 68-166, limits assumed, looked up): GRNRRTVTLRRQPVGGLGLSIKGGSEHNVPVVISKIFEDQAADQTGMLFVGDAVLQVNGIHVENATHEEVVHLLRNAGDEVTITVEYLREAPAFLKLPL
Assay: holdup assay
Parameters: key: below the threshold = too weak to quantify, mostly under pKd 3.1 to 4
Details: plain residues with an end cap or a label only (N-terminal biotin on a linker: ado-ado)
In this section we review reported pKd values for a set of binders.

>  <binder>
ATKDKKITTV [EXOC4, Q96A65]

>  <pKd>
3.92

$$$$
>  <binder>
DYSNLRETDI [ADRA1D, P25100]

>  <pKd>
5.05

$$$$
>  <binder>
TKDKVQETQI [LRRC4, Q9HBW1]

>  <pKd>
5.1

$$$$
>  <binder>
LLQEEWETVM [PTH1R, Q03431]

>  <pKd>
3.95

$$$$
>  <binder>
DSEEELPTRL [GRK6, P43250]

>  <pKd>
3.57

$$$$
